Target: IL16_1, Q14005
Sequence (Q14005 210-306): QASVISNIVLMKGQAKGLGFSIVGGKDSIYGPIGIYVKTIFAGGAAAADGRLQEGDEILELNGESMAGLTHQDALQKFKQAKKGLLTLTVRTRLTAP
Test: holdup assay
Parameters: key: below the threshold = too weak to quantify, mostly under pKd 3.1 to 4
Settings: plain residues with an end cap or a label only (N-terminal biotin on a linker: ahx)

Binder | pKd
QNTDDVQTSF [ACE2, Q9BYF1] | below the threshold
TQKFRASTAL [FRMPD1, Q5SYB0] | below the threshold
HTHSYIETHV [CNKSR2, Q8WXI2] | 3.9
TEAKLTETNA [MYO18A, Q92614] | below the threshold
TESNLQTSSC [CGN, Q9P2M7] | below the threshold
APSRKLNTEI [TIAM1, Q13009] | below the threshold
EKQAKGDTEF [CACYBP, Q9HB71] | below the threshold
QPRTWLQSPV [RTKN, Q9BST9] | 3.95
QDEKVKESYV [ABCA1, O95477] | 4.91

Source listed as paper PMC9482650.
